protocol_description: Inhibition of PDE9 (unknown origin)
Parameters: species or system Homo sapiens
property: IC50 (nM)
Kindly provide the numeric value in nM only, without the unit symbol.

Exam item: If you can, please state the reported IC50 value of C[C@H](Cc1nn2c(-c3ccccc3Cl)ncc2c(=O)[nH]1)C(F)(F)F .
Marked response: 55
